# target_or_test_system: PDE1
# protocol: PDE1 inhibition, radioenzyme assay, enzyme isolated from vascular tissue
# Format: biochemical, bovine
# condition_notes: PDEs isolated from vascular tissue; 1 μM substrate
reported_property: IC50 (µM)
Give bare numbers, in µM.

[
  {
    "compound": "CCCCn1c(=O)c2c(ncn2CC(C)=O)n(CCCC)c1=O [Denbufylline, denbufylline, reference compound]",
    "IC50 [µM]": 33
  }
]

# context switch: different compound, same IC50
Data point: CNc1nc(C(F)(F)F)nc2c1ncn2Cc1ccccc1F ; IC50 = 39
